Source listed as the supplement of paper PMC10307832.

test system: NCI-H1355; experiment: relative viability (nuclei count vs DMSO), 5 days (fraction); higher = more cells survive; conditions: first compound 0.253 µM
measurement.kind: relative viability
The answer should be written as a number, with no unit following it.

Look over these answered cases.
{"compound": "O=c1[nH]c2ccccc2n1C1CCN(CCCC(c2ccc(F)cc2)c2ccc(F)cc2)CC1 [Pimozide] + Cc1nc(NC(=O)N2CCC[C@H]2C(N)=O)sc1-c1ccnc(C(C)(C)C(F)(F)F)c1 [Alpelisib] (partner 2 µM)", "relative viability": 0.873}
{"compound": "O=c1[nH]c2ccccc2n1C1CCN(CCCC(c2ccc(F)cc2)c2ccc(F)cc2)CC1 [Pimozide] + O=C(c1cc(Cc2n[nH]c(=O)c3ccccc23)ccc1F)N1CCN(C(=O)C2CC2)CC1 [Olaparib] (partner 8 µM)", "relative viability": 0.677}
{"compound": "Cc1cnc(-c2cnc(NCCNc3ccc(C#N)cn3)nc2-c2ccc(Cl)cc2Cl)[nH]1 + C[C@]1(O)C[C@@H](c2nc(-c3ccc4ccc(-c5ccccc5)nc4c3)c3c(N)nccn32)C1 [Linsitinib] (partner 1 µM)", "relative viability": 0.841}
{"compound": "Cc1cnc(-c2cnc(NCCNc3ccc(C#N)cn3)nc2-c2ccc(Cl)cc2Cl)[nH]1 + COc1cc2c(Oc3ccc(NC(=O)C4(C(=O)Nc5ccc(F)cc5)CC4)cc3F)ccnc2cc1OCCCN1CCOCC1 [Foretinib] (partner 0.25 µM)", "relative viability": 0.867}
{"compound": "O=c1[nH]c2ccccc2n1C1CCN(CCCC(c2ccc(F)cc2)c2ccc(F)cc2)CC1 [Pimozide] + Nc1ncn([C@H]2C[C@H](O)[C@@H](CO)O2)c(=O)n1 [Decitabine] (partner 2 µM)", "relative viability": 0.332}
{"compound": "O=c1[nH]c2ccccc2n1C1CCN(CCCC(c2ccc(F)cc2)c2ccc(F)cc2)CC1 [Pimozide] + CS(=O)(=O)N1CCN(Cc2cc3nc(-c4cccc5[nH]ncc45)nc(N4CCOCC4)c3s2)CC1 [Pictilisib] (partner 1 µM)", "relative viability": 0.417}
{"compound": "Cc1cnc(-c2cnc(NCCNc3ccc(C#N)cn3)nc2-c2ccc(Cl)cc2Cl)[nH]1 + CC(=O)Nc1cccc(-n2c(=O)n(C3CC3)c(=O)c3c(Nc4ccc(I)cc4F)n(C)c(=O)c(C)c32)c1 [Trametinib] (partner 0.02 µM)", "relative viability": 0.384}
{"compound": "Cc1cnc(-c2cnc(NCCNc3ccc(C#N)cn3)nc2-c2ccc(Cl)cc2Cl)[nH]1 + CCNC(=O)c1noc(-c2cc(C(C)C)c(O)cc2O)c1-c1ccc(CN2CCOCC2)cc1 [Luminespib] (partner 0.01 µM)", "relative viability": 0.698}

As a next step, examine the compound that follows.
Look up relative viability for this compound: O=c1[nH]c2ccccc2n1C1CCN(CCCC(c2ccc(F)cc2)c2ccc(F)cc2)CC1 [Pimozide] + COc1cc2c(Oc3ccc(NC(=O)C4(C(=O)Nc5ccc(F)cc5)CC4)cc3F)ccnc2cc1OCCCN1CCOCC1 [Foretinib] (partner 0.25 µM)
0.923
